# System: JIMT-1 cells
# experiment: Cell viability of KIF18a-sensitive cell lines, JIMT-1 (Cell Titre-Glo, 7 days)
# Format: cell-based
# applied conditions: Homo sapiens, 168 h; JIMT-1, 7 days; read-out: JIMT-1 IC50
outcome measure: IC50 (nM)
Please state the figure in nM; there is no need to write the unit.

CS(=O)(=O)Nc1ccc(-n2cc(-c3cccc(N4CCC(F)(F)CC4)n3)nn2)c(N2CCCCC2)c1 [Compound 15]    12

Req: Input Cc1cc(-c2cn(-c3ccc(NS(=O)(=O)CCO)cc3N3CCCCC3)nn2)nc(N2CCC(F)(F)CC2)n1 [Compound 67] , output reported IC50.
Resp: 66

Req: Input CCS(=O)(=O)Nc1ccc(-c2cn(-c3cccc(S(=O)(=O)NC(C)(C)C)c3)nn2)c(N2CCC3(CC2)CC3)c1 [Compound 110] , output reported IC50.
Resp: 6.8

Req: Input O=S(=O)(CCO)Nc1ccc(-c2cn(-c3cncc(N4CCC(F)(F)CC4)n3)nn2)c(N2CCC3(CC2)CC3)c1 [Compound 96] , output reported IC50.
Resp: 44

* * *

# measurement target: hKIF18A (1-374) (Homo sapiens (Human))
# Sequence (Q8NI77 1-374): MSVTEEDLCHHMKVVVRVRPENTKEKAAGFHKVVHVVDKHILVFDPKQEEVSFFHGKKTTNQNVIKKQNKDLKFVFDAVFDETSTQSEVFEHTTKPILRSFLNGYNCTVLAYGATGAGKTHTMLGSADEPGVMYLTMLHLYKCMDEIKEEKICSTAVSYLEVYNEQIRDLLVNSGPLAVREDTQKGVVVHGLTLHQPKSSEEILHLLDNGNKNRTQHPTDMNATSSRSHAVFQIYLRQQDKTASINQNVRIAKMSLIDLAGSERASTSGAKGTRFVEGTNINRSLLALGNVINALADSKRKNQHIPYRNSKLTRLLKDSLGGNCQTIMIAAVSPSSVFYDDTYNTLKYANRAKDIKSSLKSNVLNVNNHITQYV
Measured pIC50 values are reported for all entries that follow.
The scale used: pIC50 is minus the common logarithm of the concentration in molar units.

O=S(=O)(CCO)Nc1ccc(-n2cc(-c3ccc(F)c(N4CCCCO4)n3)nn2)c(N2CCC3(CC2)CC3)c1 [Compound 154]    8.15
Cc1cc(-c2cn(-c3ccc(NS(=O)(=O)CCO)cc3N3CCCCC3)nn2)nc(N2CC3C(C2)C3(F)F)n1 (stereo not shown) [Compound 74]    7.74
CCS(=O)(=O)Nc1ccc(-n2cc(-c3ccc(F)c(S(=O)(=O)NC(C)(C)C)c3)nn2)c(N2CCC3(CC2)CC3)c1 [Compound 120]    7.72
CS(=O)(=O)Nc1ccc(-c2cn(-c3cccc(N4CCC(F)(F)CC4)n3)nn2)c(N2CCC3(CC2)CC3)c1 [Compound 29]    7.74
CS(=O)(=O)Nc1ccc(-c2nnc(-c3cccc(N4CCOCC4)n3)[nH]2)c(N2CCC3(CC2)CC3)c1 [Compound 2]    7.85

Req: Input O=S(=O)(CCO)Nc1ccc(-n2cc(-c3ccc(C(O)C4CCCC4)o3)nn2)c(N2CCC3(CC2)CC3)c1 (single isomer, unassigned) [Compound 51b] , output reported pIC50.
Resp: 8.51

Req: Input Cc1cc(-c2cn(-c3ccc(NS(=O)(=O)CCO)cc3N3CCC4(CC3)CC4)nn2)nc(CN2CC(F)(F)C2)n1 [Compound 152] , output reported pIC50.
Resp: 7.85

* * *

# measurement target: KIF18a-microtubule complex (Homo sapiens (Human))
# Sequence (Q8NI77 1-374, one chain of several): as the sequence (Q8NI77 1-374) above
# experiment: Binding kinetics to KIF18a-microtubule complex (global progress curve analysis)
# applied conditions: KIF18A 0.25 nM, up to 24 hr; read-out: koff (off-rate from binding kinetics assay) (converted)
Measured koff values are reported for all entries that follow.

Req: Input CS(=O)(=O)Nc1ccc(-c2ncc(-c3cccc(N4CCC(F)(F)CC4)n3)[nH]2)c(N2CCC3(CC2)CC3)c1 [Compound 9] , output reported koff.
Resp: 5.83e-05 s⁻¹

Req: Input CS(=O)(=O)Nc1ccc(-c2nnc(-c3cccc(N4CCC(F)(F)CC4)n3)[nH]2)c(N2CCC3(CC2)CC3)c1 [Compound 5] , output reported koff.
Resp: 2.53e-05 s⁻¹

Req: Input Cc1cc(-c2cn(-c3ccc(NS(=O)(=O)CCO)cc3N3CCCCC3)nn2)nc(N2CC(F)(F)C2)c1 [Compound 70] , output reported koff.
Resp: 3.61e-05 s⁻¹
